Recorded IC50 values for a group of molecules are listed next.
Tested on: A2058
method: MTT assay, A2058
Format: cell-based
measurement-conditions: Homo sapiens, A2058, 48 h, human melanoma, 48 h incubation
Protocol: The human cancer cell lines HeLa (cervical adenocarcinoma), HCT116 (colorectal adenocarcinoma), A2780 (human ovarian adenocarcinoma), A2780cis (human ovarian adenocarcinoma cisplatin-resistant), Jurkat (acute T-lymphoblastic leukemia), and Hep G2 (hepatocellular carcinoma) were cultured in an RPMI 1640 growth medium (Biosera, Kansas City, MO, USA). […]

molecule	tgt	IC50
COc1cc(/C=C2\SC(=O)N(Cc3cccc4cc5ccccc5nc34)C2=O)ccc1OCC(=O)Nc1ccc([N+](=O)[O-])cc1 [Compound 13d]	A2058	38.1 µM
COc1cc(/C=C2\SC(=O)N(Cc3c4ccccc4nc4ccccc34)C2=O)ccc1OCC(=O)Nc1cccc(C(F)(F)F)c1 [Compound 12f]	A2058	> 50 µM
O=C(COc1ccc(/C=C2\SC(=O)N(Cc3cccc4cc5ccccc5nc34)C2=O)cc1)Nc1cccc(C(F)(F)F)c1	A2058	> 50 µM
O=C(COc1ccc(/C=C2\SC(=O)N(Cc3c4ccccc4nc4ccccc34)C2=O)cc1)Nc1ccccc1C(F)(F)F	A2058	> 50 µM
COc1cc(NC(=O)COc2ccc(/C=C3\SC(=O)N(Cc4cccc5cc6ccccc6nc45)C3=O)cc2OC)cc(OC)c1 [Compound 13b]	A2058	34.4 µM
COc1cc(NC(=O)COc2ccc(/C=C3\SC(=O)N(Cc4cccc5cc6ccccc6nc45)C3=O)cc2)cc(OC)c1	A2058	> 50 µM
